B1: HDV Ribozyme (parent)
chain: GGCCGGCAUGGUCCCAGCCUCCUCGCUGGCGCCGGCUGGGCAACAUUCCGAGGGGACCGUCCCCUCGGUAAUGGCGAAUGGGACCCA

- Variants of: B1
- Method description: self-cleavage, relative activity (ratio to wild type); higher = more cleavage; co-transcriptional
Reported endpoint: self-cleavage

> print(dat)
   variant.spec  experimental.result
1     C19A A87G                 0.11

Form field self-cleavage, entry G50C A51C : 0.814

Form field self-cleavage, entry C7G G31A : 0.441

Form field self-cleavage, entry A56C C84G : 0.755

Form field self-cleavage, entry G11A C57A : 0.45

Form field self-cleavage, entry C44G C58U : 0.751

Form field self-cleavage, entry C33U U65G : 1.14

Form field self-cleavage, entry C15U C19U : 0.0767
